test system: DNA; experiment: DNA alkylating activity in human SKBR3 cells exhibiting increased cathepsin B activity and reduced GCPII expression assessed as reduction in cell viability incubated for 72 hrs by MTS assay; assay type: functional, cell-based; details: SK-BR-3, 72 h
quantity: pIC50
Interpret pIC50 as the negative base-10 log of the concentration measured in mol/L.

Challenge: Recorded pIC50 for NC(=O)c1cc2c3c(cc(O)c2[nH]1)N(C(=O)c1ccc(N)cc1)CC3CCl (stereo unspecified) , please?
Response given: 8.64

----------
test system: DNA; experiment: DNA alkylating activity in human GCPII negative 16HBE14o cells deficient of cathepsin B activity assessed as reduction in cell viability incubated for 72 hrs by MTS assay; type: functional
quantity: IC50 (µM)
Write it as a number; the unit µM goes unstated.

Challenge: Recorded IC50 for NC(=O)c1cc2c3c(cc(O)c2[nH]1)N(C(=O)c1ccc(N)cc1)CC3CCl (stereo unspecified) , please?
Response given: 0.0854

Reference for the values: ChEMBL document CHEMBL4373672
